Values compiled from patent US6534524B1.

- target or test system: CDK4/Cyclin D3 complex (Homo sapiens, UniProt P11802)
- Sequence (P11802 whole entry, the tested form may be a part): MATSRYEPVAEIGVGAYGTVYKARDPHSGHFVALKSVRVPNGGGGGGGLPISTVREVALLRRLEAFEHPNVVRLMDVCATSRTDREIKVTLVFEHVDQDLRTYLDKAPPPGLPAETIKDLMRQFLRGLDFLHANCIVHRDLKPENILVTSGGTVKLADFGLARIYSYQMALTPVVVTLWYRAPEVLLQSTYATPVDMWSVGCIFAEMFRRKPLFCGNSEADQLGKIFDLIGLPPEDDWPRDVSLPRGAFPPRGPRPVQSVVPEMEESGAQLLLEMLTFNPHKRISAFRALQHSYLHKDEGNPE
- Sequence (P30281 whole entry partner, the tested form may be a part): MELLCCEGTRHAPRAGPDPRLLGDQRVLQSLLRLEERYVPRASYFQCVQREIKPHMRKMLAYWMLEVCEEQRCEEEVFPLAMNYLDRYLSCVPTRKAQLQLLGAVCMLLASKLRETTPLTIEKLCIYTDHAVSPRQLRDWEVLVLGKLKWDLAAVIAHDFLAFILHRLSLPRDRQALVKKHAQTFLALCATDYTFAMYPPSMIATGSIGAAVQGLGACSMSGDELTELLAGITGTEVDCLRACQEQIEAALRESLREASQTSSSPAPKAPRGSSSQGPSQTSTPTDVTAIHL
- procedure details: CDK4/Cyclin D assay ([32P]ATP, Rb fragment)
I'd appreciate it if you marked entries Condition met when Ki is lower than 20 nM and Condition not met when it is not.

// known answers, use as guide
COc1cc(-c2ccc3c(/C=C/c4ccc(OC)c(OC)c4)n[nH]c3c2)ccc1O    Condition met
COc1cccc(/C=C/c2n[nH]c3cc(-c4ccncc4)ccc23)c1 [Example 29(e)]    Condition not met
CNC(=O)c1cccc2[nH]c(-c3n[nH]c4cc(-c5ccc(O)cc5OC)ccc34)nc12    Condition met
Oc1ccc(-c2ccc3c(-c4nc5ccccc5[nH]4)n[nH]c3c2)c(Oc2ccccc2)c1    Condition not met
Fc1cccc(/C=C/c2n[nH]c3cc(-c4ccncc4)ccc23)c1    Condition not met
CSc1cc(O)ccc1-c1ccc2c(-c3nc4ccccc4[nH]3)n[nH]c2c1    Condition met

Ask | Strictly below 20 nM in Ki? "COc1cc(O)ccc1-c1ccc2c(-c3nc4ccc(C(=O)NCCN5CCOCC5)cc4[nH]3)n[nH]c2c1"
Reply | Condition not met

Ask | Strictly below 20 nM in Ki? "Cc1cc(O)cc(C)c1-c1ccc2c(-c3nc4ccccc4[nH]3)n[nH]c2c1"
Reply | Condition not met

Ask | Strictly below 20 nM in Ki? COc1cc(O)ccc1-c1ccc2c(-c3ncc[nH]3)n[nH]c2c1 [Example 25(e)]
Reply | Condition not met

* * *

This section presents molecules with their documented Cmax values.
- procedure details: Determination of inhibitor concentration in mouse plasma after intraperitoneal and oral dosing
- Format: in vivo
- condition notes: female, PO, 25 mg/kg, vehicle 0.5% CMC, read-out: Cmax
// unit must come after the numeric part

Example cases with answers are listed next.
CCn1nc(C)cc1C(=O)Nc1cccc(C(=O)c2ccc3c(/C=C/c4ccccn4)n[nH]c3c2)c1.Cl [Example 59(a)]    15900 ng/mL
CNC(=O)c1ccccc1Sc1ccc2c(/C=C/c3ccccn3)n[nH]c2c1 [Example 33(a)]    721 ng/mL

Shifting focus to the molecule that follows.
Cmax recorded for this molecule, CCn1nc(C)cc1C(=O)Nc1cccc(Oc2ccc3c(/C=C/c4ccccn4)n[nH]c3c2)c1.Cl [Example 59(e)] , is 28800 ng/mL

* * *

This section presents molecules with their documented concentration at 7 h values.
- procedure details: Determination of inhibitor concentration in mouse plasma after intraperitoneal and oral dosing
- Type: in vivo
- condition notes: female, PO, 25 mg/kg, vehicle PEG400:H2O pH 2.3 30:70, read-out: Cmin (7 hr conc.)
// unit must come after the numeric part

Example cases with answers are listed next.
C=CCn1nc(C)cc1C(=O)Nc1cccc(C(=O)c2ccc3c(/C=C/c4ccccn4)n[nH]c3c2)c1 [Example 41(t)]    1350 ng/mL
CC(C)ONC(=O)c1cccc(F)c1Sc1ccc2c(/C=C/c3ccccn3)n[nH]c2c1 [Example 37(c)]    9 ng/mL

concentration at 7 h recorded for this molecule, C=C(C)CNC(=O)c1ccccc1Sc1ccc2c(/C=C/c3ccccn3)n[nH]c2c1 [Example 35(ee)] , is 9 ng/mL

concentration at 7 h recorded for this molecule, CNC(=O)c1ccccc1Nc1ccc2c(/C=C/c3ccccn3)n[nH]c2c1 [Example 39(a)] , is 219 ng/mL

concentration at 7 h recorded for this molecule, O=C(Nc1cccc(Oc2ccc3c(/C=C/c4c[nH]cn4)n[nH]c3c2)c1)c1ccccc1 [Example 32(a)] , is 18 ng/mL
